Biological target: EBOV GP ectodomain residues 1-636 (GPec) (Zaire ebolavirus, strain  …, UniProt Q05320)

>  <BINDER>
5.6.c3021 (antibody, V domains shown) VH: QLHLQESGPGLVKPSETLSLTCTVSGGSINHDYYWGWIRQPPGKGLEWIGTIYYSGNSYYNPSLKSRVTISVDTSKNQFSLKLSSVTAADTAVYYCARSEEDSVFGVLKGLAFDIWGQGTMVTVSS VL: QSVLTQPPSVSGAPGQRVTISCTGSSSNIGAGYDVHWYQQPPGRAPKLLIYGNSNRASGVPDRFSGSKSGTSASLAITGLQAEDEADYYCQSYDSSLSGSVFGGGTKLTVL

>  <binding result>
binds

$$$$
>  <BINDER>
5.6.c3507 (antibody, V domains shown) VH: EVQLVESGGGVVQPGGSLRLSCAASGFTFDDYGMHWVRQAPGKGLEWVSFISGDGYSTYYGDSVKGRFTISRDKSKNSLYLQMNSLRTEDTAFYYCAKDGGSTLTTLLYNWFDSWGQGTLVTVSS VL: DIQMTQSPSSLSASVGDRVTITCRASQSINMYLNWYQQKPGKAPKVLIYGASSLQSGVPSRFSGSGSGTDFTLTISSLQPEDFATYYCQQSYSIPVTFGPGTKVDIK

>  <binding result>
binds

$$$$
>  <BINDER>
5.6.c2762 (antibody, V domains shown) VH: QLQLQESGPGLVRPSETLSLTCTVSGGSINTNVYYWGWIRQPPGKGLEWIGTIHYSGSTYYNPSVKSRVTISVDTSTNQFSLRLNSLTAADTAVYYCARLAYGSGWAGWFDPWGQGTLVTVSS VL: SSELTQDPAVSVALGQTVRITCQGDSLRVYYATWYQQKPGQAPVLVIYAKNSRPSGIPDRFSGSSSGNTASLTITGTQAEDEADYYCNSRDSSGKVWVFGGGTKLTVL

>  <binding result>
binds

$$$$
